These data points were gathered from ChEMBL document CHEMBL6153174.

# study_target: Histone-lysine N-methyltransferase EHMT2 (Homo sapiens, UniProt Q96KQ7)
# Sequence (Q96KQ7 whole entry): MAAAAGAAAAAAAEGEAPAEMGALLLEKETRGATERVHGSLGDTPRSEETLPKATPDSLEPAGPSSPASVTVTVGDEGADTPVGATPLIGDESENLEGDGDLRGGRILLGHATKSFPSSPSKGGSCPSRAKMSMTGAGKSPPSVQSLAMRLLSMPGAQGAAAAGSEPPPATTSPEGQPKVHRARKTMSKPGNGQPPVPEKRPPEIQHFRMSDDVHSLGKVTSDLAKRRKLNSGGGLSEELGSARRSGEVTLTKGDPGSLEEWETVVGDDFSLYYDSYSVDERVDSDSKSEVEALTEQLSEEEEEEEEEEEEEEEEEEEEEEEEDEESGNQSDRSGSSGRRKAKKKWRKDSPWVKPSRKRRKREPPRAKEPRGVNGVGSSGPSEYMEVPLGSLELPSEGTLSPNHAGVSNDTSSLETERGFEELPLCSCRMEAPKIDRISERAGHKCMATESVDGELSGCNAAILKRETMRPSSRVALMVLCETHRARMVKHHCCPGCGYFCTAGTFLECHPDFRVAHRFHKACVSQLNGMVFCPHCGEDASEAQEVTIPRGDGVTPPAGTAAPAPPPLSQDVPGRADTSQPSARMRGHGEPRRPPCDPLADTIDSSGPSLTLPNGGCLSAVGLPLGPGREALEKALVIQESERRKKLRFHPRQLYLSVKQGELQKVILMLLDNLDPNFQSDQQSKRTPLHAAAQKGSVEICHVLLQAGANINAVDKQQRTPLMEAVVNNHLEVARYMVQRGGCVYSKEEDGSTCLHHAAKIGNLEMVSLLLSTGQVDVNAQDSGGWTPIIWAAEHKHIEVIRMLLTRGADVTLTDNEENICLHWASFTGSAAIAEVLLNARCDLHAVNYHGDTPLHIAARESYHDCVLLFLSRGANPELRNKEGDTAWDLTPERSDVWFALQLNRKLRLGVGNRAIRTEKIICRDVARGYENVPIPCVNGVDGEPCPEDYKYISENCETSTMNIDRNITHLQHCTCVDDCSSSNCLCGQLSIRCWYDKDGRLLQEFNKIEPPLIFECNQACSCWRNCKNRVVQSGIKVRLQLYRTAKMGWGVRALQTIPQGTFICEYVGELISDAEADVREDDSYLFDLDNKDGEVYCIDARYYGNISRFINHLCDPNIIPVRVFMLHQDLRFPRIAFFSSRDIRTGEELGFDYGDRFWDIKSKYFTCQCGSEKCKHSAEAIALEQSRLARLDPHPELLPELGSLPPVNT
pIC50: −log10 of the molar value.

>  <molecular_string>
CN1CCC(Nc2nc(-c3ccc(N)nc3)nc3c2ccn3CCCN2CCCC2)CC1

>  <pIC50>
< 4.70

$$$$

---

Each record here notes measured inhibition.
# study_target: DNA (cytosine-5)-methyltransferase 1 (Homo sapiens)
# Sequence (P26358 whole entry): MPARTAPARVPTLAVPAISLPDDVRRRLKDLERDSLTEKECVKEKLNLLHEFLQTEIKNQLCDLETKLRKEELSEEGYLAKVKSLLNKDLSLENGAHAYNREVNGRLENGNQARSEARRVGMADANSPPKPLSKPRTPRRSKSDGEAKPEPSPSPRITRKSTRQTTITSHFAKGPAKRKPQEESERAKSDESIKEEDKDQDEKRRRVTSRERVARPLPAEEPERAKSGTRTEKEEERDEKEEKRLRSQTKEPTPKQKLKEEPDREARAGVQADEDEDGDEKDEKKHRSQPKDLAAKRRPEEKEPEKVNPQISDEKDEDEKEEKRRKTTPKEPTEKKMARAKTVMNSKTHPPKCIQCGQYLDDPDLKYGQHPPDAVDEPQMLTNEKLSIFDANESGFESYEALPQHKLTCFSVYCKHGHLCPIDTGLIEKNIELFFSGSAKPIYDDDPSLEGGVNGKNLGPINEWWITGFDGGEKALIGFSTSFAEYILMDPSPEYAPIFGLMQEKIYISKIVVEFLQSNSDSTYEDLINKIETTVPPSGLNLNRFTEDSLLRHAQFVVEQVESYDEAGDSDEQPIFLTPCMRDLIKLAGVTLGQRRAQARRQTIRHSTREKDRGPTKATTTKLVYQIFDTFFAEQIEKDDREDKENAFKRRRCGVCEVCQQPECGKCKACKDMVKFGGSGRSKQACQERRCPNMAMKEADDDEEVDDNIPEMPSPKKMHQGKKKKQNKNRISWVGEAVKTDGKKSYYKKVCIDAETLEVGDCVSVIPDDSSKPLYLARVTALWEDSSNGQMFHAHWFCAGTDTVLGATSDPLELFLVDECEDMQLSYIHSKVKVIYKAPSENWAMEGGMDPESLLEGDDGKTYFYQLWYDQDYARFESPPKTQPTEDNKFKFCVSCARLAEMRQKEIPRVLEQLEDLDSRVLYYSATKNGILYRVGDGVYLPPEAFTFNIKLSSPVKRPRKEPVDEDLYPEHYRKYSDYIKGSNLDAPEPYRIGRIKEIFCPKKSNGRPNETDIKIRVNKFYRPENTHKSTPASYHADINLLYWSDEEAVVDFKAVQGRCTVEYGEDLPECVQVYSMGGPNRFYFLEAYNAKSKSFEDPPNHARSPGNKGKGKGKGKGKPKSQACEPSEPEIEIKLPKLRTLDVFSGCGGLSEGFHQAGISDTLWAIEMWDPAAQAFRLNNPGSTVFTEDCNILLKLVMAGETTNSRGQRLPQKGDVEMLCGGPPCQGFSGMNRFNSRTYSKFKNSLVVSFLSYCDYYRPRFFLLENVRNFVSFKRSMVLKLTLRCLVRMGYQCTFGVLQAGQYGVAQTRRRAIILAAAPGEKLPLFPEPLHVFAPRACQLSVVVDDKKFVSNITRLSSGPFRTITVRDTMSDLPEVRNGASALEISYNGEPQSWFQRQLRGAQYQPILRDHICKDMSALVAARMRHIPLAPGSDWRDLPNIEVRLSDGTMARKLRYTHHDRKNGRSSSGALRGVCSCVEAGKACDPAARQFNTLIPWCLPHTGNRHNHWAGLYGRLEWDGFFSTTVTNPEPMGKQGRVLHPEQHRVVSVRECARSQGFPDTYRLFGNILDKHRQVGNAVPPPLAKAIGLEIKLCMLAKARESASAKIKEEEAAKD
# experiment: Inhibition of DNMT1 (unknown origin) at 5 uM preincubated for 15 mins followed by substrate and [3H-SAM] addition and measured after 60 mins by microbeta analysis relative to control
# condition_notes: time 75.0 min

>  <molecular_string>
Cc1ccc(-c2cc(NCC3CCN(C(=O)OCc4ccccc4)CC3)c3cnn(CCCN4CCCC4)c3c2)o1

>  <inhibition (%)>
0.36

$$$$
>  <molecular_string>
Cc1ccc(-c2nc(NC3CCN(C(C)C)CC3)c3ncn(CCCN4CCCC4)c3n2)o1

>  <inhibition (%)>
37

$$$$
>  <molecular_string>
COc1ccc(-c2cc(NCC3CCN(Cc4ccccc4)CC3)c3cnn(CCCN4CCCC4)c3c2)cc1

>  <inhibition (%)>
48

$$$$
>  <molecular_string>
CC(C)N1CCC(Nc2nc(N3CCN(C)CC3)nc3c2ccn3CCCN2CCCC2)CC1

>  <inhibition (%)>
20

$$$$
>  <molecular_string>
CN1CCC(Nc2nc(-c3ccncc3)nc3c2ccn3CCCN2CCCC2)CC1

>  <inhibition (%)>
69

$$$$

---

Each record here notes measured inhibition.
# study_target: DNA (cytosine-5)-methyltransferase 3B (Homo sapiens)
# experiment: Inhibition of DNMT3B (unknown origin) at 5 uM preincubated for 15 mins followed by substrate and [3H-SAM] addition and measured after 60 mins by microbeta analysis relative to control
# condition_notes: time 75.0 min
experimental_endpoint: inhibition (%)

>  <molecular_string>
CC(C)(C)OC(=O)N1CCC(CNc2cc(-c3ccc(F)cc3)cc3c2cnn3CCCN2CCCC2)CC1

>  <study_target>
DNA (cytosine-5)-methyltransferase 3B (Homo sapiens)

>  <result>
9.1

$$$$
>  <molecular_string>
CN1CCN(c2cc(NCC3CCN(C(=O)OC(C)(C)C)CC3)c3cnn(CCCN4CCOCC4)c3c2)CC1

>  <study_target>
DNA (cytosine-5)-methyltransferase 3B (Homo sapiens)

>  <result>
31

$$$$
>  <molecular_string>
CN1CCC(Nc2nc(-c3cn[nH]c3)nc3c2ccn3CCCN2CCCC2)CC1

>  <study_target>
DNA (cytosine-5)-methyltransferase 3B (Homo sapiens)

>  <result>
-6.9

$$$$
>  <molecular_string>
CN1CCC(Nc2nc(-c3ccc(N)nc3)nc3c2ccn3CCCN2CCCC2)CC1

>  <study_target>
DNA (cytosine-5)-methyltransferase 3B (Homo sapiens)

>  <result>
0.6

$$$$
>  <molecular_string>
Cc1ccc(-c2cc(NCC3CCN(C(=O)OC(C)(C)C)CC3)c3cnn(CCCN4CCCC4)c3c2)o1

>  <study_target>
DNA (cytosine-5)-methyltransferase 3B (Homo sapiens)

>  <result>
11

$$$$
>  <molecular_string>
CN1CCC(Nc2nc(-c3ccnc(F)c3)nc3c2ccn3CCCN2CCCC2)CC1

>  <study_target>
DNA (cytosine-5)-methyltransferase 3B (Homo sapiens)

>  <result>
1.1

$$$$
>  <molecular_string>
CC(C)N1CCC(Nc2nc(N3CCCCC3)nc3c2ncn3CCCN2CCCC2)CC1

>  <study_target>
DNA (cytosine-5)-methyltransferase 3B (Homo sapiens)

>  <result>
9.9

$$$$
>  <molecular_string>
CN1CCC(Nc2nc(N3CCCCC3)nc3c2ccn3CCCN2CCOCC2)CC1

>  <study_target>
DNA (cytosine-5)-methyltransferase 3B (Homo sapiens)

>  <result>
-0.3

$$$$
>  <molecular_string>
CN1CCC(Nc2nc(N3CCCCC3)nc3c2ccn3CCCN2CCCC2)CC1

>  <study_target>
DNA (cytosine-5)-methyltransferase 3B (Homo sapiens)

>  <result>
-9.7

$$$$
>  <molecular_string>
CC(C)N1CCC(Nc2nc(-c3cn[nH]c3)nc3c2ncn3CCCN2CCCC2)CC1

>  <study_target>
DNA (cytosine-5)-methyltransferase 3B (Homo sapiens)

>  <result>
-5.5

$$$$
>  <molecular_string>
CC(C)N1CCC(Nc2nc(N3CCCCC3)nc3c2ccn3CCCN2CCCC2)CC1

>  <study_target>
DNA (cytosine-5)-methyltransferase 3B (Homo sapiens)

>  <result>
11

$$$$
>  <molecular_string>
CC(C)N1CCC(Nc2nc(-c3ccccc3)nc3c2ncn3CCCN2CCCC2)CC1

>  <study_target>
DNA (cytosine-5)-methyltransferase 3B (Homo sapiens)

>  <result>
0.7

$$$$
>  <molecular_string>
Cc1ccc(-c2nc(NC3CCN(C(C)C)CC3)c3ncn(CCCN4CCCC4)c3n2)o1

>  <study_target>
DNA (cytosine-5)-methyltransferase 3B (Homo sapiens)

>  <result>
2

$$$$
>  <molecular_string>
CN1CCC(Nc2nc(-c3ccc(F)cc3)nc3c2ccn3CCCN2CCCC2)CC1

>  <study_target>
DNA (cytosine-5)-methyltransferase 3B (Homo sapiens)

>  <result>
-6.6

$$$$
>  <molecular_string>
COc1ccc(-c2nc(NC3CCN(C)CC3)c3ccn(CCCN4CCCC4)c3n2)cn1

>  <study_target>
DNA (cytosine-5)-methyltransferase 3B (Homo sapiens)

>  <result>
1.2

$$$$
>  <molecular_string>
Cc1ccc(-c2nc(NC3CCN(C)CC3)c3ccn(CCCN4CCCC4)c3n2)o1

>  <study_target>
DNA (cytosine-5)-methyltransferase 3B (Homo sapiens)

>  <result>
-2.5

$$$$
>  <molecular_string>
CN1CCC(Nc2nc(N3CCN(C)CC3)nc3c2ccn3CCCN2CCOCC2)CC1

>  <study_target>
DNA (cytosine-5)-methyltransferase 3B (Homo sapiens)

>  <result>
16

$$$$
>  <molecular_string>
CN1CCC(Nc2nc(-c3ccc(C(F)(F)F)cc3)nc3c2ccn3CCCN2CCCC2)CC1

>  <study_target>
DNA (cytosine-5)-methyltransferase 3B (Homo sapiens)

>  <result>
1.1

$$$$
>  <molecular_string>
COc1ccc(-c2cc(NCC3CCN(Cc4ccccc4)CC3)c3cnn(CCCN4CCCC4)c3c2)cc1

>  <study_target>
DNA (cytosine-5)-methyltransferase 3B (Homo sapiens)

>  <result>
1.2

$$$$
>  <molecular_string>
CN1CCC(Nc2nc(-c3ccccc3)nc3c2ccn3CCCN2CCCC2)CC1

>  <study_target>
DNA (cytosine-5)-methyltransferase 3B (Homo sapiens)

>  <result>
6.6

$$$$
>  <molecular_string>
CN1CCC(Nc2nc(N3CCN(C)CC3)nc3c2ccn3CCCN2CCCC2)CC1

>  <study_target>
DNA (cytosine-5)-methyltransferase 3B (Homo sapiens)

>  <result>
11

$$$$
>  <molecular_string>
CC(C)N1CCC(Nc2nc(N3CCN(C)CC3)nc3c2ccn3CCCN2CCCC2)CC1

>  <study_target>
DNA (cytosine-5)-methyltransferase 3B (Homo sapiens)

>  <result>
4.3

$$$$
>  <molecular_string>
Cc1ccc(-c2cc(NC3CCN(C(C)C)CC3)c3cnn(CCCN4CCCC4)c3c2)o1

>  <study_target>
DNA (cytosine-5)-methyltransferase 3B (Homo sapiens)

>  <result>
-9.4

$$$$
>  <molecular_string>
CN1CCC(Nc2nc(-c3ccc(C#N)c(F)c3)nc3c2ccn3CCCN2CCCC2)CC1

>  <study_target>
DNA (cytosine-5)-methyltransferase 3B (Homo sapiens)

>  <result>
2.3

$$$$
>  <molecular_string>
CN1CCC(Nc2nc(-c3ccc(F)nc3)nc3c2ccn3CCCN2CCOCC2)CC1

>  <study_target>
DNA (cytosine-5)-methyltransferase 3B (Homo sapiens)

>  <result>
0.2

$$$$
>  <molecular_string>
CC(C)N1CCC(Nc2nc(N3CCOCC3)nc3c2ccn3CCCN2CCCC2)CC1

>  <study_target>
DNA (cytosine-5)-methyltransferase 3B (Homo sapiens)

>  <result>
-9.7

$$$$
>  <molecular_string>
Cc1ccc(-c2cc(NCC3CCN(C(=O)OCc4ccccc4)CC3)c3cnn(CCCN4CCCC4)c3c2)o1

>  <study_target>
DNA (cytosine-5)-methyltransferase 3B (Homo sapiens)

>  <result>
53

$$$$
>  <molecular_string>
CN1CCC(Nc2nc(N3CCOCC3)nc3c2ccn3CCCN2CCCC2)CC1

>  <study_target>
DNA (cytosine-5)-methyltransferase 3B (Homo sapiens)

>  <result>
15

$$$$
>  <molecular_string>
CN1CCC(Nc2nc(-c3ccncc3)nc3c2ccn3CCCN2CCCC2)CC1

>  <study_target>
DNA (cytosine-5)-methyltransferase 3B (Homo sapiens)

>  <result>
3.5

$$$$
>  <molecular_string>
CC(C)N1CCC(Nc2nc(-c3ccc(F)cc3)nc3c2ncn3CCCN2CCCC2)CC1

>  <study_target>
DNA (cytosine-5)-methyltransferase 3B (Homo sapiens)

>  <result>
11

$$$$

---

Each record here notes measured Cmax.
# experiment: Cmax in Sprague-Dawley rat at 10 mg/kg, iv measured upto 24 hrs by LC/MS/MS analysis
# Assay type: ADME, organism-based
# condition_notes: in vivo

>  <molecular_string>
CN1CCC(Nc2nc(-c3ccc(F)nc3)nc3c2ccn3CCCN2CCCC2)CC1

>  <Cmax (ng/mL)>
436

$$$$
>  <molecular_string>
CN1CCC(Nc2nc(-c3ccc(C#N)c(F)c3)nc3c2ccn3CCCN2CCCC2)CC1

>  <Cmax (ng/mL)>
698

$$$$
>  <molecular_string>
CN1CCC(Nc2nc(-c3ccnc(F)c3)nc3c2ccn3CCCN2CCCC2)CC1

>  <Cmax (ng/mL)>
419

$$$$
